Target: angiotensin-converting enzyme (ACE)
Experiment: cell-based or functional assay
Observation type: IC50 for the inhibition of ACE using the substrate FAPGG (µM)
I only need the number, in µM, no unit after it.

IC50 for the inhibition of ACE using the substrate FAPGG reported for this binder VENLHLPLPLL [VENLHLPLPLL (SEQ ID NO:18)] : 175

Recorded IC50 for the inhibition of ACE using the substrate FAPGG (binder NLHLPLPLL [NLHLPLPLL (SEQ ID NO:12)] ): 15

Item: FVAPFPEVFG [FVAPFPEVFG (SEQ ID NO:23)] | IC50 for the inhibition of ACE using the substrate FAPGG: 650

// field: IC50 for the inhibition of ACE using the substrate FAPGG; key: LNENLLRFFVAPFPEVFG [LNENLLRFFVAPFPEVFG (SEQ ID NO:20)] ; value = 280

For reference, reported IC50 for the inhibition of ACE using the substrate FAPGG for ENLHLPLPLL [ENLHLPLPLL (SEQ ID NO:19)] stands at 250

Summary for this binder, NENLLRFFVAPFPEVFG [NENLLRFFVAPFPEVFG (SEQ ID NO:21)] : IC50 for the inhibition of ACE using the substrate FAPGG is 55

Field IC50 for the inhibition of ACE using the substrate FAPGG (entry ENLLRFFVAPFPEVFG [ENLLRFFVAPFPEVFG (SEQ ID NO:22)] ) reads 250
